molecular target: Neu5Ac(a2-8)Neu5Ac(a2-3)Gal(b1-3)GalNAc(b1-4)[Neu5Ac(a2-8)Neu5Ac(a2-3)]Gal(b1-4)Glc; experiment: glycan array binding signal (z-score within array); higher = stronger binding; conditions: glycan notation: IUPAC condensed, linker removed
This is one part of a sample in which the strongest signals are shown more often than they occur.
Experimental readout: glycan array binding signal (z-score)
Write the value as a bare number.

In: Can you share its glycan array binding signal (z-score)? I mean this binder: DC-ASGPR Long (Homo sapiens) (protein) MTRTYENFQYLENKVKVQGFKNGPLPLQSLLQRLRSGPCHLLLSLGLGLLLLVIICVVGFQNSKFQRDLVTLRTDFSNFTSNTVAEIQALTSQGSSLEETIASLKAEVEGFKQERQAGVSELQEHTTQKAHLGHCPHCPSVCVPVHSEMLLRVQQLVQDLKKLTCQVATLNNNASTEGTCCPVNWVEHQDSCYWFSHSGMSWAEAEKYCQLKNAHLVVINSREEQNFVQKYLGSAYTWMGLSDPEGAWKWVDGTDYATGFQNWKPGQPDDWQGHGLGGGEDCAHFHPDGGWNDDVCQRPYHWVCEAGLGQTSQESH
Out: -0.349
